lowest phenotypically active concentration by entry:
Test system: HepG2-TP53BP1-CLTA
Assay: lowest phenotypically active concentration; higher = less potent
Conditions: treatment time: 24 h
Reported Property: lowest phenotypically active concentration (µM)

>>> result_value("COc1cc(C(=O)N2CCC(N3CCN(C)CC3)CC2)ccc1Nc1ncc2c(n1)N(C)c1ccccc1C(=O)N2C")
3
>>> result_value("COc1ccccc1S(=O)(=O)Nc1ccc2c(c1)CN(C)C(=O)N2")
3
>>> result_value("Oc1ccc(-c2nc(-c3ccc(F)cc3)c(-c3ccncc3)[nH]2)cc1")
1
>>> result_value("O=C(NC(NC(=S)Nc1ccc(F)c([N+](=O)[O-])c1)C(Cl)(Cl)Cl)C(c1ccccc1)c1ccccc1 (stereo not drawn)")
9
>>> result_value("CN(C)CCCN1c2ccccc2Sc2ccc(Cl)cc21")
9
>>> result_value("NCC(=O)Nc1ccc(-n2nc(C(F)(F)F)cc2-c2ccc3c(ccc4ccccc43)c2)cc1")
1
